tested on: H1975; experiment: Inhibition assay on tumor cell proliferation (CellTiter-Glo), H1975; format: cell-based, Human; conditions: H1975 (L858R and T790M EGFR double mutation), 72 hours, 10% bovine serum
pIC50: −log10 of the molar value.
quantity_measured: pIC50

**Query** Query (molecule): C=CC(=O)Nc1cc(Nc2nccc(-n3c(=O)n(C)c4cc(OC)ccc43)n2)c(OC)cc1N(C)CCN(C)C ; field requested: pIC50
**Result** 7.30 to 8.00

====

Field: AUC(0-t). Provide a value for each of the molecules that follow.
assay: Pharmacokinetics in rats after oral administration; assay type: in vivo, SD rats; settings: male, SD, rat, 20 mg/kg, plasma, read-out: AUC0-24
Numeric only. Scale: ng·h/mL

**Query** Query (molecule): C=CC(=O)Nc1cc(Nc2nccc(-n3ccc4nc(Cl)ccc43)n2)c(OC)cc1N(C)CCN(C)C ; field requested: AUC(0-t)
**Result** 1700

**Query** Field entry: C=CC(=O)Nc1cc(Nc2nccc(-n3c(=O)n(C)c4cc(F)ccc43)n2)c(OC)cc1N(C)CCN(C)C
**Result** 561

**Query** Field entry: C=CC(=O)Nc1cc(Nc2nccc(-n3c(=O)n(C(C)C)c4cc(F)ccc43)n2)c(OC)cc1N(C)CCN(C)C
**Result** 1340

**Query** Field entry: C=CC(=O)Nc1cc(Nc2nccc(-n3c(=O)n(CC=C(C)C)c4ccccc43)n2)c(OC)cc1N(C)CCN(C)C
**Result** 834

**Query** Field entry: C=CC(=O)Nc1cc(Nc2nccc(-n3ccc4nc(OC)ccc43)n2)c(OC)cc1N(C)CCN(C)C
**Result** 1440

====

Field: pIC50. Provide a value for each of the molecules that follow.
molecular target: EGFR T790M/L858R (Homo sapiens, UniProt P00533, L858R/T790M); assay: Mutant EGFR T790M/L858R activity inhibition assay (Caliper mobility shift); conditions: read-out: enzyme activity inhibition (IC50) EGFR T790M/L858R
Sequence (P00533 25-1210 T790M/L858R): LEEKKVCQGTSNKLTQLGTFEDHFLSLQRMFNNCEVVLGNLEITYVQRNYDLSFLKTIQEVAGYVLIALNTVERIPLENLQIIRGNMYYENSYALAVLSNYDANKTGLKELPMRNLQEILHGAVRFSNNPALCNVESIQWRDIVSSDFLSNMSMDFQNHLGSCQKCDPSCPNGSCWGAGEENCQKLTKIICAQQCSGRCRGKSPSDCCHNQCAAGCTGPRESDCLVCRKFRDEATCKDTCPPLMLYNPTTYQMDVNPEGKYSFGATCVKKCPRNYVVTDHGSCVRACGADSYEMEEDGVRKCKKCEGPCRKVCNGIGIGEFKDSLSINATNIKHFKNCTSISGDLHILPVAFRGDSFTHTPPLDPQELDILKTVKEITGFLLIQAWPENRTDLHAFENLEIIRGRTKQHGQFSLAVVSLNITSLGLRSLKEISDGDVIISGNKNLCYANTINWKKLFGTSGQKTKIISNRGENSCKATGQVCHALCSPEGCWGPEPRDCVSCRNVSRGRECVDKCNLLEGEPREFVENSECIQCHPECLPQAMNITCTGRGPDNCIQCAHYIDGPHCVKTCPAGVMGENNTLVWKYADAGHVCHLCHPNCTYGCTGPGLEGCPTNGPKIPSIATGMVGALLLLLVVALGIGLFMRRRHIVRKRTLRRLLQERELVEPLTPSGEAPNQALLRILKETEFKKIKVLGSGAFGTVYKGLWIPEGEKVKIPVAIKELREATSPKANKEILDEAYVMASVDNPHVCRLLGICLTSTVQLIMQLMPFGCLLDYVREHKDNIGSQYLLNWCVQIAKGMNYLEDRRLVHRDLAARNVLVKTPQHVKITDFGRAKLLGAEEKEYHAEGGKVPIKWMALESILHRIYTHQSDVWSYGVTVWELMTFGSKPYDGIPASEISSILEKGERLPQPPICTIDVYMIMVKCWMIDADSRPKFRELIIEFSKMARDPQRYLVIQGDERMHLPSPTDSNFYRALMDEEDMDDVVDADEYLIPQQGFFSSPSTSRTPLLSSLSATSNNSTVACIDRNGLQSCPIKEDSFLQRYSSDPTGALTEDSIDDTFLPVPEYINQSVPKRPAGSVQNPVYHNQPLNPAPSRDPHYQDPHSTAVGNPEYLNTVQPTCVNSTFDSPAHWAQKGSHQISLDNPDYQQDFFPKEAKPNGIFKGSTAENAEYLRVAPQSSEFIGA
pIC50: −log10 of the molar value.

**Query** Query (molecule): C=CC(=O)Nc1cc(Nc2nccc(-n3ccc4c(F)cccc43)n2)c(OC)cc1N(C)CCN(C)C ; field requested: pIC50
**Result** > 9.00

**Query** Field entry: C=CC(=O)Nc1cc(Nc2nccc(-n3ccc4cc(OC)ccc43)n2)c(OC)cc1N(C)CCN(C)C
**Result** > 9.00

**Query** Field entry: C=CC(=O)Nc1cc(Nc2nccc(-n3c(=O)n(C(C)C)c4ccccc43)n2)ccc1N(C)CCN(C)C
**Result** > 9.00

**Query** Field entry: C=C(C)C(=O)Nc1cc(Nc2nccc(-n3ccc4ccccc43)n2)c(OC)cc1N(C)CCN(C)C
**Result** 7.30 to 8.00

**Query** Field entry: C=CC(=O)Nc1cc(Nc2nccc(-n3c(=O)n(C(C)C)c4ccccc43)n2)c(C)cc1N(C)CCN(C)C
**Result** > 9.00

**Query** Field entry: C=CC(=O)Nc1cc(Nc2nccc(-n3ccc4cc([N+](=O)[O-])ccc43)n2)c(OC)cc1N(C)CCN(C)C
**Result** 8.00 to 9.00

**Query** Field entry: C=CC(=O)Nc1cc(Nc2nccc(-n3c(=O)n(C)c4cc(C#N)ccc43)n2)c(OC)cc1N(C)CCN(C)C
**Result** > 9.00
